Sourced from ChEMBL document CHEMBL1141454

- Protocol Details: Inhibition of cyclooxygenase
Assay Endpoint: Ki (mM)
// units = mM; emit number, no label

[Q] Look up Ki for this compound: `CC(=O)Oc1ccccc1C(=O)O`
[A] 20

====

In this section we review reported pIC50 values for a set of molecules.
- System: Prostaglandin G/H synthase 2 (Homo sapiens, UniProt P35354)
- Sequence (P35354 whole entry): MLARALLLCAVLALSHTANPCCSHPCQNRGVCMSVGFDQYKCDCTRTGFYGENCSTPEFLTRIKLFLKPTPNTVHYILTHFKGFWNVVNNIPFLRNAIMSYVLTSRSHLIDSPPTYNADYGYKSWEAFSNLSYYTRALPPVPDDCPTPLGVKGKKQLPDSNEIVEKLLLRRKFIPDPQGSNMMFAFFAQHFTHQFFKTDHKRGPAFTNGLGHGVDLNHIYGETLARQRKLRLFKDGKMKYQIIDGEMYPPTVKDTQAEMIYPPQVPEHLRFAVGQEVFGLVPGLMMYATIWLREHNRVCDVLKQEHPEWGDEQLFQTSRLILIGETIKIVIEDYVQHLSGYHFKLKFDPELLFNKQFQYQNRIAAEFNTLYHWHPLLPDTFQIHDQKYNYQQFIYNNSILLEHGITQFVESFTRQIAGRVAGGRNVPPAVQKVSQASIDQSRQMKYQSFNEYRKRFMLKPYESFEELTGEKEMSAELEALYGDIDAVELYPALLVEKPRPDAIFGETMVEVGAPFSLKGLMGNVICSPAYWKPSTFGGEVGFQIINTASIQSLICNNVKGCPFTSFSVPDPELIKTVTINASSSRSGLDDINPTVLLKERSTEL
Give only the number. pIC50 is defined as minus log10 of concentration in molar units.

Molecule: CCOc1cccc(OCC)c1-c1ccc(C(C)C(=O)O)cc1F (configuration not stated)
Assay Result: 7.00

We now examine a further molecule.
[Q] Dear colleague, I am looking for the recorded pIC50 of the following molecule: `C/C(=N/OCc1ccccc1Nc1c(Cl)cccc1Cl)C(=O)O`
[A] 7.00

====

- System: Prostaglandin G/H synthase 1 (Homo sapiens)
- Sequence (P23219 whole entry): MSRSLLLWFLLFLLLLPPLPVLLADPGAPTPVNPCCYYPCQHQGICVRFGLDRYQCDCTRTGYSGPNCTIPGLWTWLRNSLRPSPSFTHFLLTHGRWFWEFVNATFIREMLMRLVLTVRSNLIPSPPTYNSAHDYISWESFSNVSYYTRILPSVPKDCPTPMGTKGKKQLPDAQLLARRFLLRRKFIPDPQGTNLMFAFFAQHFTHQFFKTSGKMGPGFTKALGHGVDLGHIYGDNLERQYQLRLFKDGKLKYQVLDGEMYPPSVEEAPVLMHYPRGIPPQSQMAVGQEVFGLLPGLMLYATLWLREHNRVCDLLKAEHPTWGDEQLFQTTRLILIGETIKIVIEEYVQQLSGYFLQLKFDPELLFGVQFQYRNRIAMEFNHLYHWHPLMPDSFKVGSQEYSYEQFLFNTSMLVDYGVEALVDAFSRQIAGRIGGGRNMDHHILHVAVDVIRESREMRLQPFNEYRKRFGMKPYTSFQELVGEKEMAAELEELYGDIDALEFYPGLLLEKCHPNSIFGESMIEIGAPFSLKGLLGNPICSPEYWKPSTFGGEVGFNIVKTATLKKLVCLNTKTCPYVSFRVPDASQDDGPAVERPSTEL
pIC50: −log10 of the molar value.
In this section we review reported pIC50 values for a set of compounds.

Smiles Structure: COc1ccc2c(c1)c(CCNC(=O)c1ccc(Cl)cc1)c(C)n2Cc1ccc(Br)cc1
Assay Endpoint: pIC50
Assay Result: < 4.18

[Q] What reported pIC50 corresponds to `COc1ccc2c(c1)c(CCOC(=O)c1ccc(Cl)cc1)c(C)n2Cc1ccc(Br)cc1` on Prostaglandin G/H synthase 1 (Homo sapiens)?
[A] < 4.18
